All figures here come from paper PMC3876027.

- tested_system: human M5 (Homo sapiens, UniProt P08912)
- Sequence (P08912 whole entry): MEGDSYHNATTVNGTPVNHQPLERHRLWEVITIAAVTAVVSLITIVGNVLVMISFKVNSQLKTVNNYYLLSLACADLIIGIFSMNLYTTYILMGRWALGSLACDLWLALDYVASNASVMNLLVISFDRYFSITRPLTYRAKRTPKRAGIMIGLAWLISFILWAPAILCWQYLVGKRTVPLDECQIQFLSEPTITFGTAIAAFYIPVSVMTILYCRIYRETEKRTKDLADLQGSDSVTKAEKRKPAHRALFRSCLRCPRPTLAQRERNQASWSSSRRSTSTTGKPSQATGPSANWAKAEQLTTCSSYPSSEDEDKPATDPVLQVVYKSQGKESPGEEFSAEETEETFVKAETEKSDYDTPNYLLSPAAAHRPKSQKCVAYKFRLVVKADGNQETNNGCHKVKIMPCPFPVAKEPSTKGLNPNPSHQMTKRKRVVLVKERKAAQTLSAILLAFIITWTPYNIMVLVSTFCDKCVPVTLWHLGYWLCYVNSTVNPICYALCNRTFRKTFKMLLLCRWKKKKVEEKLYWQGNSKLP
- assay_details: functional calcium mobilization assay in CHO cells stably expressing human M5
assay_endpoint: IC50

State its IC50: O=C(c1ccc(F)cc1)N1CCN2C(=O)c3ccccc3C12c1ccccc1 (stereo not shown)
> 10 µM

* * *

- assay_details: hepatic microsomal intrinsic clearance, human
- Format: in vitro ADME
- condition: liver microsomes
assay_endpoint: CLint scaled at 1 µM (mL/min/kg)
Could you give me the number in mL/min/kg? Just the number is fine.

Please look at this compound and report its CLint scaled at 1 µM: "O=C(c1ccc(F)c(F)c1)N1CCN2C(=O)c3ccccc3[C@@]12c1ccc(Cl)cc1"
2.6

* * *

- assay_details: IV pharmacokinetics in male cynomolgus monkey
- Assay type: in vivo
- condition: plasma, 1 mg/kg
assay_endpoint: clearance (mL/min/kg)
Quick note: give the figure in mL/min/kg, leave out the unit.

Name the recorded clearance of the item "O=C(c1ccc(F)c(F)c1)N1CCN2C(=O)c3ccccc3[C@@]12c1ccc(Cl)cc1" in your answer.
3

* * *

- assay_details: hepatic microsomal intrinsic clearance, cynomolgus monkey
- Assay type: in vitro ADME
- condition: liver microsomes
assay_endpoint: CLint scaled (L/h/kg)
Express it in L/h/kg; write the number only.

Identify measured CLint scaled corresponding to O=C(c1ccc(F)c(F)c1)N1CCN2C(=O)c3ccccc3[C@@]12c1ccc(Cl)cc1 [compound 8]
1.2
